Assay: Approximate Aqueous Solubility of Selected Solid Forms
Format: physicochemical
Conditions: water, thermodynamic from solid, ambient temperature; read-out: Aqueous solubility, visually approximated
readout_type: solubility

Entry under review: CC(=O)Nc1cc(Oc2cnc3nc(Nc4cc(C(F)(F)F)cn(C)c4=O)n(C)c3c2C#N)ccn1.Cl [Compound 2 Form A] . Reported solubility?
< 2000 µg/mL

====

Test: Kinetic solubility of Compound 1 Lot II, visually estimated at ambient temperature
Format: physicochemical
Conditions: AcOH, organic solvent or mixture, thermodynamic from solid, AcOH, ambient temperature; read-out: Solubility (mg/mL)
readout_type: solubility

Entry under review: CC(=O)Nc1cc(Oc2cnc3nc(Nc4cc(C(F)(F)F)cn(C)c4=O)n(C)c3c2C#N)ccn1 [Compound 1 Lot II] . Reported solubility?
5 to 20 mg/mL

====

Assay: Solubility Study of Compound 1 Form 1 (solvent aliquot addition, visual observation)
Format: physicochemical
Details: organic solvent or mixture, thermodynamic from solid; solvent DMA; read-out: Solubility at ambient temperature
readout_type: solubility

Entry under review: CC(=O)Nc1cc(Oc2cnc3nc(Nc4cc(C(F)(F)F)cn(C)c4=O)n(C)c3c2C#N)ccn1 [Compound 1 Form 1] . Reported solubility?
5 to 20 mg/mL

====

Assay: Kinetic solubility of Compound 1 Lot II, visually estimated at ambient temperature
Assay type: physicochemical
Conditions: CHCl3, organic solvent or mixture, thermodynamic from solid, CHCl3, ambient temperature; read-out: Solubility (mg/mL)
readout_type: solubility

Entry under review: CC(=O)Nc1cc(Oc2cnc3nc(Nc4cc(C(F)(F)F)cn(C)c4=O)n(C)c3c2C#N)ccn1 [Compound 1 Lot II] . Reported solubility?
< 1 mg/mL

====

Assay: Kinetic solubility of Compound 1 Lot II, visually estimated at ambient temperature
Assay type: physicochemical
Conditions: THF, organic solvent or mixture, thermodynamic from solid, THF, ambient temperature; solution almost completely clear after 24 h; read-out: Solubility (mg/mL)
readout_type: solubility

Entry under review: CC(=O)Nc1cc(Oc2cnc3nc(Nc4cc(C(F)(F)F)cn(C)c4=O)n(C)c3c2C#N)ccn1 [Compound 1 Lot II] . Reported solubility?
1 to 4.9 mg/mL

====

Experiment: Solubility Study of Compound 1 Form 1 (solvent aliquot addition, visual observation)
Assay type: physicochemical
Conditions: organic solvent or mixture, thermodynamic from solid; solvent TFE; read-out: Solubility at ambient temperature
readout_type: solubility

Entry under review: CC(=O)Nc1cc(Oc2cnc3nc(Nc4cc(C(F)(F)F)cn(C)c4=O)n(C)c3c2C#N)ccn1 [Compound 1 Form 1] . Reported solubility?
5 to 20 mg/mL

====

Test: Kinetic solubility of Compound 1 Lot II, visually estimated at ambient temperature
Format: physicochemical
Conditions: 50:50 TFE/H2O (v/v), aqueous with cosolvent or surfactant or cyclodextrin, thermodynamic from solid, 50:50 TFE/H2O (v/v), ambient temperature; read-out: Solubility (mg/mL)
readout_type: solubility

Entry under review: CC(=O)Nc1cc(Oc2cnc3nc(Nc4cc(C(F)(F)F)cn(C)c4=O)n(C)c3c2C#N)ccn1 . Reported solubility?
1 to 4.9 mg/mL

====

Assay: Kinetic solubility of Compound 1 Lot II, visually estimated at ambient temperature
Type: physicochemical
Settings: HFIPA, organic solvent or mixture, thermodynamic from solid, HFIPA, ambient temperature; read-out: Solubility
readout_type: solubility
Answer with the number, then the unit.

Entry under review: CC(=O)Nc1cc(Oc2cnc3nc(Nc4cc(C(F)(F)F)cn(C)c4=O)n(C)c3c2C#N)ccn1 [Compound 1 Lot II] . Reported solubility?
84 mg/mL

====

Assay: Kinetic solubility of Compound 1 Lot II, visually estimated at ambient temperature
Type: physicochemical
Conditions: 5:95 HFIPA/H2O (v/v), aqueous with cosolvent or surfactant or cyclodextrin, thermodynamic from solid, 5:95 HFIPA/H2O (v/v), ambient temperature; read-out: Solubility (mg/mL)
readout_type: solubility

Entry under review: CC(=O)Nc1cc(Oc2cnc3nc(Nc4cc(C(F)(F)F)cn(C)c4=O)n(C)c3c2C#N)ccn1 . Reported solubility?
< 1 mg/mL

====

Test: Kinetic solubility of Compound 1 Lot II, visually estimated at ambient temperature
Assay type: physicochemical
Details: DMF, organic solvent or mixture, thermodynamic from solid, DMF, ambient temperature; read-out: Solubility (mg/mL)
readout_type: solubility

Entry under review: CC(=O)Nc1cc(Oc2cnc3nc(Nc4cc(C(F)(F)F)cn(C)c4=O)n(C)c3c2C#N)ccn1 [Compound 1 Lot II] . Reported solubility?
1 to 4.9 mg/mL

====

Experiment: Kinetic solubility of Compound 1 Lot II, visually estimated at ambient temperature
Type: physicochemical
Settings: NMP, organic solvent or mixture, thermodynamic from solid, NMP, ambient temperature; read-out: Solubility (mg/mL)
readout_type: solubility

Entry under review: CC(=O)Nc1cc(Oc2cnc3nc(Nc4cc(C(F)(F)F)cn(C)c4=O)n(C)c3c2C#N)ccn1 . Reported solubility?
5 to 20 mg/mL

====

Experiment: Dynamic vapor sorption (DVS) hygroscopicity
Type: physicochemical
Settings: Target RH 55.0%; listed as Lot II
readout_type: Sorp Mass Change (%)
Report as a plain number; the unit % is understood.

Entry under review: CC(=O)Nc1cc(Oc2cnc3nc(Nc4cc(C(F)(F)F)cn(C)c4=O)n(C)c3c2C#N)ccn1 . Reported Sorp Mass Change (%)?
6.99

====

Experiment: Solubility Study of Compound 1 Form 1 (solvent aliquot addition, visual observation)
Assay type: physicochemical
Conditions: water, thermodynamic from solid; solvent H2O; read-out: Solubility at ambient temperature
readout_type: solubility

Entry under review: CC(=O)Nc1cc(Oc2cnc3nc(Nc4cc(C(F)(F)F)cn(C)c4=O)n(C)c3c2C#N)ccn1 [Compound 1 Form 1] . Reported solubility?
< 1000 µg/mL

====

Test: Kinetic solubility of Compound 1 Lot II, visually estimated at ambient temperature
Assay type: physicochemical
Details: acetone, organic solvent or mixture, thermodynamic from solid, Acetone, ambient temperature; read-out: Solubility (mg/mL)
readout_type: solubility

Entry under review: CC(=O)Nc1cc(Oc2cnc3nc(Nc4cc(C(F)(F)F)cn(C)c4=O)n(C)c3c2C#N)ccn1 . Reported solubility?
< 1 mg/mL

====

Experiment: Kinetic solubility of Compound 1 Lot II, visually estimated at ambient temperature
Assay type: physicochemical
Conditions: H2O, water, thermodynamic from solid, H2O, ambient temperature; read-out: Solubility (mg/mL)
readout_type: solubility

Entry under review: CC(=O)Nc1cc(Oc2cnc3nc(Nc4cc(C(F)(F)F)cn(C)c4=O)n(C)c3c2C#N)ccn1 . Reported solubility?
< 1 mg/mL

====

Test: Kinetic solubility of Compound 1 Lot II, visually estimated at ambient temperature
Type: physicochemical
Conditions: DMSO, organic solvent or mixture, thermodynamic from solid, DMSO, ambient temperature; read-out: Solubility (mg/mL)
readout_type: solubility

Entry under review: CC(=O)Nc1cc(Oc2cnc3nc(Nc4cc(C(F)(F)F)cn(C)c4=O)n(C)c3c2C#N)ccn1 . Reported solubility?
5 to 20 mg/mL

====

Experiment: Kinetic solubility of Compound 1 Lot II, visually estimated at ambient temperature
Format: physicochemical
Conditions: DMA, organic solvent or mixture, thermodynamic from solid, DMA, ambient temperature; read-out: Solubility (mg/mL)
readout_type: solubility

Entry under review: CC(=O)Nc1cc(Oc2cnc3nc(Nc4cc(C(F)(F)F)cn(C)c4=O)n(C)c3c2C#N)ccn1 [Compound 1 Lot II] . Reported solubility?
5 to 20 mg/mL

====

Experiment: Kinetic solubility of Compound 1 Lot II, visually estimated at ambient temperature
Assay type: physicochemical
Conditions: ACN, organic solvent or mixture, thermodynamic from solid, ACN, ambient temperature; read-out: Solubility (mg/mL)
readout_type: solubility

Entry under review: CC(=O)Nc1cc(Oc2cnc3nc(Nc4cc(C(F)(F)F)cn(C)c4=O)n(C)c3c2C#N)ccn1 . Reported solubility?
< 1 mg/mL

====

Assay: Solubility Study of Compound 1 Form 1 (solvent aliquot addition, visual observation)
Type: physicochemical
Conditions: organic solvent or mixture, thermodynamic from solid; solvent MeOH; read-out: Solubility at ambient temperature
readout_type: solubility

Entry under review: CC(=O)Nc1cc(Oc2cnc3nc(Nc4cc(C(F)(F)F)cn(C)c4=O)n(C)c3c2C#N)ccn1 [Compound 1 Form 1] . Reported solubility?
< 1000 µg/mL

====

Target: JAK2 (JH1domain-catalytic, Y1007F,Y1008F) kinase (Homo sapiens, UniProt O60674, Y1007F/Y1008F)
Construct: JAK2 (JH1domain-catalytic, Y1007F,Y1008F) kinase was expressed as N-terminal fusion
Sequence (O60674 849-1124 Y1007F/Y1008F limits assumed): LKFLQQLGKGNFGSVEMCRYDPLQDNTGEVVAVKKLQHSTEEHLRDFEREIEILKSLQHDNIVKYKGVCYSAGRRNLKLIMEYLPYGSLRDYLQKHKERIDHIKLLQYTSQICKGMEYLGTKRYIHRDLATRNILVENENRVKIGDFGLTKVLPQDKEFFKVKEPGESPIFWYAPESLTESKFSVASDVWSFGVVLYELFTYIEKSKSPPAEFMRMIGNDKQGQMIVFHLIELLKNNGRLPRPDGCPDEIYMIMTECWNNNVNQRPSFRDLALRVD
Test: JAK2 Binding Assay
Conditions: Compound 1 as prepared by Example 1
readout_type: Kd

Entry under review: CC(=O)Nc1cc(Oc2cnc3nc(Nc4cc(C(F)(F)F)cn(C)c4=O)n(C)c3c2C#N)ccn1 [Compound 1] . Reported Kd?
< 0.01 µM

====

Test: Kinetic solubility of Compound 1 Lot II, visually estimated at ambient temperature
Assay type: physicochemical
Conditions: TFE, organic solvent or mixture, thermodynamic from solid, TFE, ambient temperature; read-out: Solubility (mg/mL)
readout_type: solubility

Entry under review: CC(=O)Nc1cc(Oc2cnc3nc(Nc4cc(C(F)(F)F)cn(C)c4=O)n(C)c3c2C#N)ccn1 . Reported solubility?
5 to 20 mg/mL
